Taken from PubChem BioAssay (NCATS).

System: Dd2
test.protocol: qHTS profiling for inhibitors of Plasmodium falciparum proliferation (AID 504749); further: nearly all actives have a fitted effect of over 60% in size
condition: P. falciparum in erythrocytes, SYBR Green DNA, 72 h; series mostly up to 28.7 µM
Results filed as inconclusive are left out. Activity calls are given as the source filed them. The call rests on the fitted dose curve; in most records, active means well fitted inhibition curve with a large enough effect; inconclusive means small, poorly fitted or top-dose-only effect; inactive means flat fitted curve, though single readings scatter.
Outcomes you can answer with include only these: True (active), False (inactive)

Use these answered entries as a reference point.
Cc1c(C)n(Cc2ccccc2)c2ccc(C(=O)OCCN(C)C)cc12 = False
CC/C(=C(/CC)c1ccc(O)cc1)c1ccc(O)cc1 = False
CC(=O)Oc1ccc(C(c2ccc(OC(C)=O)cc2)c2ccccn2)cc1 = False
CCN(CC)CCNC(=O)COc1ccc(Cl)cc1 = True
CNCCC=C1c2ccccc2CCc2ccccc21 = True

Recorded test call requested for CNCCC(Oc1ccccc1C)c1ccccc1 (stereo unspecified)
True

Recorded test call requested for CCN(CC)CCOc1ccc(C(O)(Cc2ccc(Cl)cc2)c2ccc(C)cc2)cc1 (stereo unspecified)
True

Recorded test call requested for COC(=O)[C@@H]1CC2=CC(=O)CC[C@]2(C)[C@@]23O[C@@H]2C[C@@]2(C)[C@@H](CC[C@@]24CCC(=O)O4)[C@H]13
False
